Consider the following log10(Ki) data for 5-hydroxytryptamine receptor 2A (Rattus norvegicus, UniProt P14842), collected from several reports.
Note: values are log10 of Ki expressed in nM.

Fc1ccc(N2CCN(CCC3OCCc4ccccc43)CC2)cc1 (stereo not drawn)
0.76
CSc1ccc([C@H]2CN3CCC[C@H]3c3ccccc32)cc1
2.15
CN1CCN(CCCN2c3ccccc3Sc3ccc(Cl)cc32)CC1
0.80

-- ask For the molecule `COc1cc(N)c(Cl)cc1C(=O)CCC1CCN(CCNS(C)(=O)=O)CC1` , what log10(Ki) is on record?
-- reply 3.00

-- ask Would you kindly repeat that for `Cc1cc(NC(=O)Nc2ccc3c(ccn3C)c2)sn1` ?
-- reply 3.70

-- ask Try the molecule `CN1CCN(C2=Nc3ccccc3Sc3ccc(Cl)cc32)CC1`
-- reply -0.10

----------
Values of pKi for 5-hydroxytryptamine receptor 2A (Rattus norvegicus), collected from a number of published sources:
As a rule, pKi stands for the negative log10 of the concentration, concentration in M.

The examples below pair each entry with its known result.
CCCCN1CCC(CCC(=O)c2cc(Cl)c(N)cc2OC)CC1
6.30
OC1(c2ccc(Cl)c(C(F)(F)F)c2)CCN(CCCC(c2ccc(F)cc2)c2ccc(F)cc2)CC1
7.20
OCCN1CCN(CCCN2c3ccccc3Sc3ccc(Cl)cc32)CC1
8.60
Cc1ccccc1C1CN(C)CCc2c1cc(O)c(O)c2Br (configuration not stated)
7.34

-- ask # lookup: pKi of C=CCN1CCc2c(cc(O)c(O)c2Br)C(c2cccc(C)c2)C1 (configuration not stated)
-- reply 6.22

-- ask Do the same for CN1CCc2cc(Cl)c(O)cc2C(c2ccccc2C(=O)C2=CC=C[C@@H]2[Re]([CH]=O)([CH]=O)[CH]=O)C1 (some centres not stated) please
-- reply 7.77

----------
// merged dataset of Ki values, system = 5-hydroxytryptamine receptor 2A (Rattus norvegicus, UniProt P14842), multiple refs
Sequence (P14842 whole entry): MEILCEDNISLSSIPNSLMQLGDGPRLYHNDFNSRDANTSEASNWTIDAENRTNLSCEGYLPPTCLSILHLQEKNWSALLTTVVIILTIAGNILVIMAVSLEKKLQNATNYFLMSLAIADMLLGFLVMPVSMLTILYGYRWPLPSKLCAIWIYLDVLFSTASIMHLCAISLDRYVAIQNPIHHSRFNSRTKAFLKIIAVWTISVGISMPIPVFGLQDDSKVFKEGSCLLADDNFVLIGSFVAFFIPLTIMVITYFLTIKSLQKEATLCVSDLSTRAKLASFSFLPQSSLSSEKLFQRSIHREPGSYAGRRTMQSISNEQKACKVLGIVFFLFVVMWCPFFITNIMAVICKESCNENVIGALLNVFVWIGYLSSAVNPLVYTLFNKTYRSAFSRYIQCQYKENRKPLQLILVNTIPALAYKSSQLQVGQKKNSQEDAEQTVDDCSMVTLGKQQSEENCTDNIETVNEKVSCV
API: value field is a number in nM; no unit string.

Example entries and their recorded answers appear below.
O=C1CC2(CCCC2)CC(=O)N1CCNCC1COc2ccccc2O1 (stereo unspecified)
1620
CN1CCN(C2=Nc3ccccc3Cc3ccccc32)CC1
12.6
CN1CCc2cc(Cl)c(O)cc2C(c2cccc3c2OCC3)C1 (stereo unspecified)
4.5

Please turn your attention to the following entry.
-- ask Query the reported Ki for 5-hydroxytryptamine receptor 2A (Rattus norvegicus, UniProt P14842); item: Oc1cc2c(c(Cl)c1O)CCNCC2c1ccccc1 (stereo unspecified)
-- reply 995

----------
Record: compiled log10 of Ki on 5-hydroxytryptamine receptor 2A (Rattus norvegicus) from multiple reports.
Please be aware that the numbers have been log10-transformed from Ki in nM.

CN1CCN(C2=Nc3cc(F)ccc3Cc3ccccc32)CC1
0.90
CN1CCc2cc(Cl)c(O)cc2C(c2cccc(C(=O)C3=CC=C[C@@H]3[Re]([CH]=O)([CH]=O)[CH]=O)c2)C1 (stereo partly specified)
2.36
C=CCN1CCc2c(cc(O)c(O)c2Cl)C(c2cccc(C)c2)C1 (stereo unspecified)
3.00
CCCN(C(C)C)[C@H]1COc2cccc(C(N)=O)c2C1
3.00
CCCN(CCC)C1CCc2cc(CS(=O)(=O)c3ccc(OC)cc3)ccc2C1 (stereo unspecified)
3.00

Lab note: next molecule to report on.
-- ask # lookup: log10 of Ki of `Cn1c(=O)c2c(ncn2CCN2CCC(C(=O)c3ccc(F)cc3)CC2)n(C)c1=O`
-- reply 0.65

----------
A compilation of published log10 of Ki results with 5-hydroxytryptamine receptor 2A (Rattus norvegicus).
Please interpret these as log10 of Ki where Ki is in nM.

Example entries and their recorded answers appear below.
CCN1CCC[C@H]1CNC(=O)c1c(OC)ccc(Br)c1OC
3.72
Cc1ccc(C2CN(C)CCc3c2cc(O)c(O)c3Cl)cc1 (stereo not given)
2.17
Cc1cccc(C2CNCCc3c2cc(O)c(O)c3Cl)c1 (stereo not given)
3.08
C=CCN1CCc2c(cc(O)c(O)c2Br)C(c2ccc(C)cc2)C1 (stereo not given)
2.99
Cc1cccc([C@@H]2CN(C)CCc3c2cc(O)c(O)c3Br)c1
2.35
Cc1nc2n(c(=O)c1CCN1CCC(c3noc4cc(F)ccc34)CC1)CCCC2O (stereo not given)
-0.66
c1ccc2c(c1)CC(N1CCN(c3cccc4c3OCCO4)CC1)C2
2.33
CCN1CCC[C@H]1CNC(=O)c1c(O)c(Cl)cc(Cl)c1OC
3.60
COc1ccc(OC[C@H]2CN(C)CC[C@@H]2c2ccccc2)cc1
2.61
Cc1ccc(C2CN(C)CCc3c2cc(O)c(O)c3Br)cc1 (stereo not given)
2.09

-- ask Data request, read-out log10 of Ki, for Cc1[nH]cnc1CC1CCc2c(C)c3ccccc3n2C1=O (stereo not given)
-- reply -2.00

-- ask Thanks! And C=CCN1CCc2cc(O)c(O)cc2C(c2ccccc2)C1 (stereo not given) ?
-- reply 3.48

----------
Ki for 5-hydroxytryptamine receptor 2A (Rattus norvegicus), merged from several publications.

In the examples that follow, each entry is paired with its recorded Ki.
CCC(=O)N1c2ccccc2C(N(C(C)=O)c2ccccc2)CC1C (stereo not drawn)
> 1000 nM
NC(=O)c1ccc(F)c2c1CC(N(C1CCC1)C1CCC1)CO2 (stereo not drawn)
> 10000 nM
O=c1n(CCCCNCc2ccc3ccccc3c2)c(O)c2n1CCC2
> 1000 nM
O=c1n(Cc2ccc(CNCC3CCc4ccccc4O3)cc2)c(O)c2n1CCC2 (stereo not drawn)
> 1000 nM
NC(CSSCC(N)C(=O)O)C(=O)O (stereo not drawn)
> 10000 nM
O=c1n(CCCCNCC2CCc3ccccc3O2)c(O)c2n1CCCC2 (stereo not drawn)
> 1000 nM
N[C@@H](CS)C(=O)O
> 10000 nM
CC1CC(N(C(=O)C2CC2)c2ccccc2)c2ccccc2N1C(=O)c1ccccc1 (stereo not drawn)
> 1000 nM
Oc1cc2c(cc1O)[C@@H](c1ccccc1)CNCC2
> 10000 nM
N[C@H](CCS(=O)(=O)O)C(=O)O
> 10000 nM

-- ask What measured Ki goes with C=CCN1CCc2c(cc(O)c(O)c2Br)C(c2ccccc2C)C1 (stereo not drawn) ?
-- reply 742 nM

-- ask What about O=c1scc(O)n1CCCCCCCCNCC1CCc2ccccc2O1 (stereo not drawn) ?
-- reply > 1000 nM

-- ask Similarly, `COc1ccccc1N1CCN(CCN2C(=O)CC3(CCCC3)CC2=O)CC1` ?
-- reply 1740 nM

-- ask Would you mind doing CCc1c(C)[nH]c2c1C(=O)C(CN1CCOCC1)CC2 (stereo not drawn) as well?
-- reply 501 nM

-- ask Also `Cc1cccc([C@H]2CN(C)CCc3c2cc(O)c(O)c3Cl)c1` , if possible.
-- reply 266 nM

-- ask # iterate: `c1ccc2c(CCC3CCNCC3)c[nH]c2c1`
-- reply 794 nM

-- ask Cool, now `N=C(N)NC(=O)c1nc(Cl)c(N2CCCCCC2)nc1N`
-- reply 400 nM

-- ask Next record, please: `CN(C)CCCSc1ccccc1NC(=O)/C=C/c1ccccc1`
-- reply 6.02 nM
